# Target Or Test System: ARHGEF12, Q9NZN5-2
# Sequence (Q9NZN5 other isoform, or with tags, fused parts or gaps): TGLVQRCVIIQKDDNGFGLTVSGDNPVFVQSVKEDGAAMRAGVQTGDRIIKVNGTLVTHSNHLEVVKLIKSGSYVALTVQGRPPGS
# Experiment Notes: holdup assay
# Design: key: below the threshold = too weak to quantify, mostly under pKd 3.1 to 4
# Settings: plain residues with an end cap or a label only (N-terminal biotin on a linker: ahx)
Observation Type: pKd

KEYDDELTFF [USH1C, Q9Y6N9] ... below the threshold
SKKNELFSNL [NHERF1, O14745] ... 3.98
KDECVIATEV [DLL1, O00548] ... 4.44
VNENQKEYFF [CNTNAP4, Q9C0A0] ... below the threshold
YNSFLSVTTV [PDZRN3, Q9UPQ7] ... 4.25
SAPATLSSRA [PDLIM2, Q96JY6] ... below the threshold
PKMKLNETSF [SHKBP1, Q8TBC3] ... below the threshold
AKPQPVDSWV [ARVCF, O00192] ... below the threshold
HSATSVHTSV [MTMR1, Q13613] ... below the threshold
ADENEQVSAV [RAPGEF6, Q8TEU7] ... 3.83
